These measurements were taken from ChEMBL document CHEMBL1133617.

Target: Bifunctional dihydrofolate reductase-thymidylate synthase (Toxoplasma gondii, UniProt Q07422)
Sequence (Q07422 whole entry): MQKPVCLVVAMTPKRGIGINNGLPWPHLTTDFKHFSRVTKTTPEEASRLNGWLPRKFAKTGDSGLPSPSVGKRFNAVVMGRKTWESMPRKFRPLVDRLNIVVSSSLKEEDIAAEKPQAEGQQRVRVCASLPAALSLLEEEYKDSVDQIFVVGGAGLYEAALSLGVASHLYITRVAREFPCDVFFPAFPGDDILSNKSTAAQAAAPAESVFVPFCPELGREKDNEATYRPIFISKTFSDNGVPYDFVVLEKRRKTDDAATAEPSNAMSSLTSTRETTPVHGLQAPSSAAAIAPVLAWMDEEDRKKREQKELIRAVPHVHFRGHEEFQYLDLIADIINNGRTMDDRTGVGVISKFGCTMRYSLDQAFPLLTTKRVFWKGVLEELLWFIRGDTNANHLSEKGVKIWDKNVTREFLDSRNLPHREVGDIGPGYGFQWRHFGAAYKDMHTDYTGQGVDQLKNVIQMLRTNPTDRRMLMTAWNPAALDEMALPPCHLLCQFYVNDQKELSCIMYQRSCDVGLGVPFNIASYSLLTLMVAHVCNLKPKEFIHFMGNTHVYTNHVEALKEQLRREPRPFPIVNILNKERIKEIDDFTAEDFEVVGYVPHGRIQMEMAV
Assay: Inhibitory concentration against Toxoplasma gondii Dihydrofolate reductase
pIC50: −log10 of the molar value.
Record Condition met whenever pIC50 is at 5 or higher; record Condition not met when lower.

C/C(=C/c1coc2nc(N)nc(N)c12)c1ccc(C(=O)N[C@@H](CCC(=O)O)C(=O)O)cc1.C/C(=C\c1coc2nc(N)nc(N)c12)c1ccc(C(=O)N[C@@H](CCC(=O)O)C(=O)O)cc1 (mixture of isomers)    Condition met
C/C(=C\c1coc2nc(N)nc(N)c12)c1ccc(C(=O)N[C@@H](CCC(=O)O)C(=O)O)cc1    Condition not met
CN(Cc1coc2nc(N)nc(N)c12)c1ccc(C(=O)N[C@@H](CCC(=O)O)C(=O)O)cc1 [FURO[2,3D]PYRIMIDINE ANTIFOLATE]    Condition not met
CC(Cc1coc2nc(N)nc(N)c12)c1ccc(C(=O)N[C@@H](CCC(=O)O)C(=O)O)cc1 (stereo not given in full)    Condition met
Nc1nc(N)c2c(CNc3ccc(C(=O)N[C@@H](CCC(=O)O)C(=O)O)cc3)coc2n1    Condition met

---

System: FaDu
Test: Growth inhibition of human squamous cell carcinoma FaDu cells during continuous Exposure ([…])
Type: functional, cell-based
pEC50: −log10 of the molar value.
endpoint name: pEC50

C/C(=C/c1coc2nc(N)nc(N)c12)c1ccc(C(=O)N[C@@H](CCC(=O)O)C(=O)O)cc1.C/C(=C\c1coc2nc(N)nc(N)c12)c1ccc(C(=O)N[C@@H](CCC(=O)O)C(=O)O)cc1 (mixture of isomers)    5.85
CN(Cc1cnc2nc(N)nc(N)c2n1)c1ccc(C(=O)N[C@@H](CCC(=O)O)C(=O)O)cc1 [METHOTREXATE]    7.95
CC(Cc1coc2nc(N)nc(N)c12)c1ccc(C(=O)N[C@@H](CCC(=O)O)C(=O)O)cc1 (some centres undefined)    7.76

---

Assay: ratio of vmax to Km
Recorded Ratio for the following molecules
endpoint name: Ratio

Nc1nc(N)c2c(CCc3ccc(C(=O)N[C@@H](CCC(=O)O)C(=O)O)cc3)coc2n1    0.07
Nc1nc(N)c2nc(CNc3ccc(C(=O)N[C@@H](CCC(=O)O)C(=O)O)cc3)cnc2n1    0.23
C/C(=C/c1coc2nc(N)nc(N)c12)c1ccc(C(=O)N[C@@H](CCC(=O)O)C(=O)O)cc1.C/C(=C\c1coc2nc(N)nc(N)c12)c1ccc(C(=O)N[C@@H](CCC(=O)O)C(=O)O)cc1 (mixture of isomers)    0.05
C/C(=C\c1coc2nc(N)nc(N)c12)c1ccc(C(=O)N[C@@H](CCC(=O)O)C(=O)O)cc1    0.15

---

Quick record: pIC50, Thymidylate synthase (Rattus norvegicus, UniProt P45352).
pIC50: −log10 of the molar value.
endpoint name: pIC50

C/C(=C\c1coc2nc(N)nc(N)c12)c1ccc(C(=O)N[C@@H](CCC(=O)O)C(=O)O)cc1    < 3.44
CC(Cc1coc2nc(N)nc(N)c12)c1ccc(C(=O)N[C@@H](CCC(=O)O)C(=O)O)cc1 (stereo partly drawn)    < 3.44
C/C(=C/c1coc2nc(N)nc(N)c12)c1ccc(C(=O)N[C@@H](CCC(=O)O)C(=O)O)cc1.C/C(=C\c1coc2nc(N)nc(N)c12)c1ccc(C(=O)N[C@@H](CCC(=O)O)C(=O)O)cc1 (mixture of isomers)    < 3.44
